- Method description: AUC in mouse at 10 mg/kg, po administered as single dose
- Assay type: ADME, organism-based
- Parameters: dose 10 mg/kg, route oral
- Test conditions: plasma
Result type: AUC

{"columns": ["Structure smiles", "Endpoint value"],
 "data": [
  ["Nc1c(-c2ccc([C@H]3CC[C@H](CC(=O)O)CC3)cc2)cnc2ccnn12", "151 µg·h/mL"]
]}

###

- Method description: Cmax in dog
- Assay type: ADME, organism-based, Canis lupus familiaris
- Test conditions: plasma
Result type: Cmax

{"columns": ["Structure smiles", "Endpoint value"],
 "data": [
  ["Nc1c(-c2ccc([C@H]3CC[C@H](CC(=O)O)CC3)cc2)cnc2ccnn12", "20500 ng/mL"]
]}
